Cmax: recorded values
assay: Cmax in human at 220 mg/m2 administered as DMSO/egg phospholipid formulation; type: ADME, organism-based; conditions: in vivo
measure name: Cmax (µM)

- C=CCNC1=C2C[C@@H](C)C[C@H](OC)[C@H](O)[C@@H](C)/C=C(\C)[C@H](OC(N)=O)[C@@H](OC)/C=C\C=C(/C)C(=O)NC(=CC1=O)C2=O [TANESPIMYCIN]: 7.5
- CO[C@H]1/C=C\C=C(/C)C(=O)NC2=CC(=O)C(N)=C(C[C@@H](C)C[C@H](OC)[C@H](O)[C@@H](C)/C=C(\C)[C@@H]1OC(N)=O)C2=O: 3

====

Record: Activity reported on Heat shock protein HSP 90-beta (Homo sapiens).
Sequence (P08238 whole entry): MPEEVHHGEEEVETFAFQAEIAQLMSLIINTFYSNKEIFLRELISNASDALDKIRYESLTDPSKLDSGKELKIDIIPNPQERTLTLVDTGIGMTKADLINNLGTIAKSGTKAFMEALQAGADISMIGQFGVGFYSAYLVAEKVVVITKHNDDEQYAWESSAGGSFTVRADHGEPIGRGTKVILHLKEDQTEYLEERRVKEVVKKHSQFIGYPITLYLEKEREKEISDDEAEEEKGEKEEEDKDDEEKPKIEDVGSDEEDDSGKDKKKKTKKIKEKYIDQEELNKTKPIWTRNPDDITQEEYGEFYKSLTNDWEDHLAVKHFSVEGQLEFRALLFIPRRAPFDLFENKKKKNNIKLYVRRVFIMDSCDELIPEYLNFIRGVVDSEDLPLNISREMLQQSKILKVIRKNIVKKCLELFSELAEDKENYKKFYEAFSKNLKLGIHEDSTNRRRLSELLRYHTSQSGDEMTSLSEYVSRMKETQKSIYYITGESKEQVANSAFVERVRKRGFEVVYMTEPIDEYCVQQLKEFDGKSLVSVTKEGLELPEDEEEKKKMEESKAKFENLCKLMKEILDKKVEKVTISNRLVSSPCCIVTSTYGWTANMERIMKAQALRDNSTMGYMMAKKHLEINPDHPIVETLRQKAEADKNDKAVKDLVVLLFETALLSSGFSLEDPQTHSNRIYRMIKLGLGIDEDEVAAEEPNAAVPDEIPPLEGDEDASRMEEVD
measure name: Activity

• CCCCn1c(Cc2ccc(OC)c(OC)c2OC)nc2c(N)ncnc21 = 40000 nM
• CCOP(=O)(CCn1c(Sc2nc3cccc(Cl)c3s2)nc2c(N)ncnc21)OCC = 30 nM
• COc1ccc(I)c(Sc2nc3c(N)ncnc3n2CCNCC(C)(C)C)c1 = 30 nM
• C#CCCCn1c(Sc2cc3c(cc2Br)OCO3)nc2c(N)ncnc21 = 30 nM

====

experiment: Clearance in plasma of mouse bearing human A2780 cells at 80 mg/kg, ip administered as DMSO/egg phospholipid formulation; type: ADME, organism-based; set-up: dose 80 mg/kg, route intraperitoneal
Each entry below lists one item and its recorded CL/F value.
measure name: CL/F (mL/min)

- C=CCNC1=C2C[C@@H](C)C[C@H](OC)[C@H](O)[C@@H](C)/C=C(\C)[C@H](OC(N)=O)[C@@H](OC)/C=C\C=C(/C)C(=O)NC(=CC1=O)C2=O: 0.667
- CO[C@H]1/C=C\C=C(/C)C(=O)NC2=CC(=O)C(N)=C(C[C@@H](C)C[C@H](OC)[C@H](O)[C@@H](C)/C=C(\C)[C@@H]1OC(N)=O)C2=O: 1.83

====

test: Toxicity in mouse assessed as maximum tolerated dose; format: organism-based; conditions: in vivo
measure name: MTD (mg/kg)

• CCNC(=O)c1noc(-c2cc(C(C)C)c(O)cc2O)c1-c1ccc(CN2CCOCC2)cc1 [LUMINESPIB] = 50

====

test: Half life in tumor of mouse bearing human MM1S cells at 50 mg/kg; format: ADME, organism-based, Neoplasm; set-up: dose 50 mg/kg
measure name: half-life (h)

- CC1(C)CC(=O)c2c(C(F)(F)F)nn(-c3ccc(C(N)=O)c(N[C@H]4CC[C@H](O)CC4)c3)c2C1: 10

====

experiment: AUC in plasma of mouse bearing human WM266.4 cells at 50 mg/kg, ip; type: ADME, organism-based; design: dose 50 mg/kg, route intraperitoneal
measure name: AUC (µM·h)

• CCNC(=O)c1noc(-c2cc(C(C)C)c(O)cc2O)c1-c1ccc(CN2CCOCC2)cc1 = 26

====

assay: AUC in human at 220 mg/m2 administered as DMSO/egg phospholipid formulation; format: ADME, organism-based; details: plasma
measure name: AUC (µM·h)

- C=CCNC1=C2C[C@@H](C)C[C@H](OC)[C@H](O)[C@@H](C)/C=C(\C)[C@H](OC(N)=O)[C@@H](OC)/C=C\C=C(/C)C(=O)NC(=CC1=O)C2=O: 22
- CO[C@H]1/C=C\C=C(/C)C(=O)NC2=CC(=O)C(N)=C(C[C@@H](C)C[C@H](OC)[C@H](O)[C@@H](C)/C=C(\C)[C@@H]1OC(N)=O)C2=O: 21

Source listed as ChEMBL document CHEMBL1154885.
